The measured values listed here are drawn from patent US20160002357A1.

A collection of binders and their measured % of binding of Clone #153 to human P-cadherin-Fc
Molecular target: T1, P-cadherin-ECD1-3-Fc protein (human P-cadherin-Fc) (human, UniProt P22223 108-440)
T1 construct: Construct was expressed with signal peptide and pro-peptide (PACE co-transfected to process the propeptide); not shown: hinge and CH2 and CH3 domains of human IgG1
T1 sequence (P22223 108-440): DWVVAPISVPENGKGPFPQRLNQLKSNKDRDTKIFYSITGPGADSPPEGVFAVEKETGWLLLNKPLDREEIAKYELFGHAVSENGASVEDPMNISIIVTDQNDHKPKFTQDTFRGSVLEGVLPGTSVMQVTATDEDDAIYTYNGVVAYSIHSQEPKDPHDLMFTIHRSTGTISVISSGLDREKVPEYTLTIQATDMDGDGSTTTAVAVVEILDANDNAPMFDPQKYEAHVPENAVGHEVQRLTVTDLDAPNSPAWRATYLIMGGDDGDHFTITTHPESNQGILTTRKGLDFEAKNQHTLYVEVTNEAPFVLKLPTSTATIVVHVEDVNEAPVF
Assay: phage scFv ELISA, coated P-cadherin-ECD1-3-Fc
ASSAY_READOUT: % of binding of Clone #153 to human P-cadherin-Fc (%)

* anti-P-cadherin scFv 153 alanine-mutant L3.9-Ala (scFv, V domains shown, scFv on phage) VH: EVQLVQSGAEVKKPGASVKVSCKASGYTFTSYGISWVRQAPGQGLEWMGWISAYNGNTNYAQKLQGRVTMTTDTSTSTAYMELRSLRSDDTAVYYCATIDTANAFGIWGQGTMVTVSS VL: QSVLTQPPSVSAAPGQKVTISCSGSSSNIGNNYVSWYQQLPGTAPKLLIYDNNKRPSGIPDRFSGSKSGTSATLGITGLQTGDEADYYCGTWDSSLSAVVFGGGTKLTVL | 166
* anti-P-cadherin scFv 153 alanine-mutant L1.11-Ala (scFv, V domains shown, scFv on phage) VH: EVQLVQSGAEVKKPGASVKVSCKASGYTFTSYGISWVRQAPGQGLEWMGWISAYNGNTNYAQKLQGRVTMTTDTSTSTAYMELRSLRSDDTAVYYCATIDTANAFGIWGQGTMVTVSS VL: QSVLTQPPSVSAAPGQKVTISCSGSSSNIGNNAVSWYQQLPGTAPKLLIYDNNKRPSGIPDRFSGSKSGTSATLGITGLQTGDEADYYCGTWDSSLSGVVFGGGTKLTVL | 139
